For each of the compounds below, state its Zahl der gestorbenen Tiere / Gesamtzahl der Tiere.
Tested on: Ratten
Test: Lethal dose after intravenous injection in rats
Type: in vivo
Details: Dosis 2: 15 g J/kg, i.v., Ratten (90-110 g), 300 mg Jod/ml, 2 ml/min
Source text: Die Hydrophilie wird als eine wichtige Voraussetzung für eine Verminderung der bei intravenöser Injektion beobachteten nicht osmolalitätsbedingten Nebenwirkungen angesehen (Dawson P., Clauß W.: Contrast Media in Practice, Springer Verlag Berlin Heidelberg 1993, Seite 11-12). Dazu gehören vor allem Übelkeit und Erbrechen, sowie allergieartige Reaktionen bis hin zum schweren anaphylaktoiden Schock. […]

Example cases with answers are listed next.
compound: COCC(=O)Nc1c(I)c(C(=O)NCC(O)CO)c(I)c(C(=O)N(C)CC(O)CO)c1I (stereo not shown)
recorded-result: 3/4

compound: C[C@H](O)C(=O)Nc1c(I)c(C(=O)NC(CO)CO)c(I)c(C(=O)NC(CO)CO)c1I
recorded-result: 1/4

compound: CN(C(=O)CO)c1c(I)c(C(=O)NCC(O)CO)c(I)c(C(=O)NCC(O)CO)c1I (stereo not shown)
recorded-result: 3/3

Shift focus to the following entry.
// map CN(CC(O)CO)C(=O)c1c(I)c(NC(=O)CO)c(I)c(C(=O)NCC(O)CO)c1I (stereo not shown) to recorded Zahl der gestorbenen Tiere / Gesamtzahl der Tiere (system: Ratten) 2/4

Every entry's value here was drawn from patent EP0815072B1.
